Target: T1, activated human complement C1s (human, UniProt P09871 16-688)
T1 construct: also called aC1s; active C1s
T1 sequence: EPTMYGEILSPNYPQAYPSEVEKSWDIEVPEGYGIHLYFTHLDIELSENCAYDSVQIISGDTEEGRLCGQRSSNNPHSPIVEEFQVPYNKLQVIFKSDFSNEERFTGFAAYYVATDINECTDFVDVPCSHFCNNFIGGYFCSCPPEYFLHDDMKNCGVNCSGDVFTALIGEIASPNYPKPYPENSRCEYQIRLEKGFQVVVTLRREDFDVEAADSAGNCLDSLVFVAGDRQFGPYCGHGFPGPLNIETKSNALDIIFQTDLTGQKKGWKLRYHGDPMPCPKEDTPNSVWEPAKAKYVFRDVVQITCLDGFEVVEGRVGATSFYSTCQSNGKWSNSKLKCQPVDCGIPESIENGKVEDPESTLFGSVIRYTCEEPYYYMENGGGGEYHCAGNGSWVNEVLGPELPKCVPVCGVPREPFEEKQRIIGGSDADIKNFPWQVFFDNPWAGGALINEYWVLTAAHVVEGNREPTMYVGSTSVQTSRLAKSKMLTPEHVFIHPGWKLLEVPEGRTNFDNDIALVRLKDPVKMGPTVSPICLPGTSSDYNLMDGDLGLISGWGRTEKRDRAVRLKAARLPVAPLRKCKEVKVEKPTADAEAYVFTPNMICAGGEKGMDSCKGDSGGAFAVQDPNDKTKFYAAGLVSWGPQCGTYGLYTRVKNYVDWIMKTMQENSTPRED
Assay: direct binding of antibody to activated C1s (aC1s); assay format not stated
measured_endpoint: EC50 (nM)
Form entry: value (nM) — number only.

| binder | display_unit | EC50 |
| --- | --- | --- |
| biotinylated TNT005 (antibody, V domains shown, Parental antibody; also called Biot-005; parental TNT005) VH: EVQLQQSGAELVRPGASVKLSCTASGFNIKDDYIHWVKQRPEQGLEWIGRIDPADGHTKYAPKFQVKATITADTSSNTAYLQLSSLTSEDTAVYYCARYGYGREVFDYWGQGTTLTVSS VL: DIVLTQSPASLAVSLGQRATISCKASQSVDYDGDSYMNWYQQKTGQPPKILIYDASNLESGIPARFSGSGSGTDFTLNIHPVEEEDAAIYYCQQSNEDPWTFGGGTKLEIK | nM | 0.0828 |
| humanized TNT005 variant VH variant 3+Vk variant 2 (antibody, V domains shown, also called VH variant 3 + VL variant 2) VH: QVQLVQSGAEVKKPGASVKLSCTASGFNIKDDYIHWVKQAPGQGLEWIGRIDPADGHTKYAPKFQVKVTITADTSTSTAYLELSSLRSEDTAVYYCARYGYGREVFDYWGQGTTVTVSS VL: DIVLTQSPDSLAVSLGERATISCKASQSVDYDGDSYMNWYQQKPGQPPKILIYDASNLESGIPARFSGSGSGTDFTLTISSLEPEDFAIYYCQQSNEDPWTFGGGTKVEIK | nM | 0.163 |

[ask] Which EC50 reading was recorded for the binder humanized TNT005 variant VH variant 4+Vk variant 1 (antibody, V domains shown, also called VH variant 4 + VL variant 1) VH: QVQLVQSGAEVKKPGASVKVSCTASGFNIKDDYIHWVRQAPGQGLEWIGRIDPADGHTKYAPKFQVKVTITADTSTSTAYMELSSLRSEDTAVYYCARYGYGREVFDYWGQGTTVTVSS VL: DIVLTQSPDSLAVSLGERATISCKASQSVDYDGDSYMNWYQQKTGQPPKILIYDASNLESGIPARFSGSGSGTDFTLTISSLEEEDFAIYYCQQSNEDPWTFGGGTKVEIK ?
[reply] 0.152

[ask] What value of EC50 has been reported for the following binder? humanized TNT005 variant VH variant 2+Vk variant 2 (antibody, V domains shown, also called VH variant 2 + VL variant 2) VH: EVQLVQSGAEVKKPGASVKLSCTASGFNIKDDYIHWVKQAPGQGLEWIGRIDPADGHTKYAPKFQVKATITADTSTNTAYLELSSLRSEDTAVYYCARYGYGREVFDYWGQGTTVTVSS VL: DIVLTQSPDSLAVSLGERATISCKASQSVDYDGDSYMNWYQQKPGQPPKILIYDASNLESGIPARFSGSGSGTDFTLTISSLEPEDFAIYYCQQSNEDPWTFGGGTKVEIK
[reply] 0.134

[ask] Using the record for humanized TNT005 variant VH variant 1+Vk variant 2 (antibody, V domains shown, also called VH variant 1 + VL variant 2) VH: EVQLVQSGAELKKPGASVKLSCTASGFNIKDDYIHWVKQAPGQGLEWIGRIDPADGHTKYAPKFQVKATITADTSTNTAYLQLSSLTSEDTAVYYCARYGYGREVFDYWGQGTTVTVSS VL: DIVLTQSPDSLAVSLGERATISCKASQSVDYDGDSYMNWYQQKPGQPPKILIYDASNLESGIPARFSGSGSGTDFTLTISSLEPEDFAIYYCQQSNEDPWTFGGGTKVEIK , report its EC50.
[reply] 0.088
